System: RXRa homodimer (NR concentration 180 nM)
run_description: PBM binding z-score (relative to random genomic background probes); higher = stronger binding; sequences stand for … in GC…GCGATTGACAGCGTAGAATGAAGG
Use y when the recorded PBM binding z-score is no lower than 3; use n when it is lower.

stdin: Does "CCTAGTTGGTCAGGAGGTCACACACCGGATATGA" have a reported PBM binding z-score of at least 3?
stdout: y

stdin: Does "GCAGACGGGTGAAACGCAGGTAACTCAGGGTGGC" have a reported PBM binding z-score of at least 3?
stdout: n

stdin: Does "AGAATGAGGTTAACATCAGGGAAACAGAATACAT" have a reported PBM binding z-score of at least 3?
stdout: y

stdin: Does "GCAGACAGGTGATACGCAGGTAACTCAGGGTGGC" have a reported PBM binding z-score of at least 3?
stdout: n

stdin: Does "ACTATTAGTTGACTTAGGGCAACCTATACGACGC" have a reported PBM binding z-score of at least 3?
stdout: n

stdin: Does "CACACTAGGTCAAGGTCAAAGTCGGTTTGTGCCA" have a reported PBM binding z-score of at least 3?
stdout: y

stdin: Does "CGTCGAAGGTCATAGGAGGTCAGTGAAGACAGAT" have a reported PBM binding z-score of at least 3?
stdout: y

stdin: Does "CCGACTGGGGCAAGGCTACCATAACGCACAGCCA" have a reported PBM binding z-score of at least 3?
stdout: n

stdin: Does "GCATATAGGTAATACACGGTGAAAGTCCGATTGT" have a reported PBM binding z-score of at least 3?
stdout: n

stdin: Does "ATCTCTAGGTAAGCAAGTTCAGTGAATGCCGAAC" have a reported PBM binding z-score of at least 3?
stdout: n

stdin: Does "CGTCCAAGGTCAAAGGCCAGTGAAGAGATGACGG" have a reported PBM binding z-score of at least 3?
stdout: y

stdin: Does "CCTTACGGGTCACTGAGAGGTTATAGCATTTGGA" have a reported PBM binding z-score of at least 3?
stdout: y
